System: pigweed
Assay Summary: Test C pre-/postemergence test
Type: in vivo, Amaranthus retroflexus
Study Conditions: Preemergence, 31 g ai/ha; scale 0 to 100 (0 no effect, 100 complete control)
Source text: Seeds of plant species selected from blackgrass (Alopecurus myosuroides), downy brome (Bromus tectorum), green foxtail (Setaria viridis), Italian ryegrass (Lolium multiflorum), wheat (Triticum aestivum), wild oat (Avena fatua), catchweed bedstraw (Galium aparine), Russian thistle (Salsola kali), […] […]
Reported Metric: Plant response rating, Pigweed
Reply briefly: the number, and no unit.

Record Cn1nc(C(F)(F)F)c(CS(=O)(=O)c2cccc[n+]2[O-])c1OCC(F)F has pigweed Plant response rating, Pigweed equal to 0

Record Cc1cc[n+]([O-])c(S(=O)(=O)Cc2c(C(F)(F)F)nn(C)c2OC(C)C(F)(F)F)c1 (stereo not drawn) has pigweed Plant response rating, Pigweed equal to 10

Record CC(Oc1c(C[S+]([O-])c2cccc[n+]2[O-])c(C(F)(F)F)nn1C)C(F)(F)F (stereo not drawn) has pigweed Plant response rating, Pigweed equal to 100

Record Cn1nc(C(F)(F)F)c(C[S+]([O-])c2ccc(Cl)c[n+]2[O-])c1OCC(F)F (stereo not drawn) has pigweed Plant response rating, Pigweed equal to 100

Record Cc1cc([S+]([O-])Cc2c(C(F)(F)F)nn(C)c2OCC(F)(F)F)[n+]([O-])cc1Cl (stereo not drawn) has pigweed Plant response rating, Pigweed equal to 100

Record [O-][n+]1cc(Cl)ccc1[S+]([O-])Cc1c(C(F)(F)F)nn(CC(F)(F)F)c1Cl (stereo not drawn) has pigweed Plant response rating, Pigweed equal to 70

Record Cc1cc[n+]([O-])c(S(=O)(=O)Cc2c(C(F)(F)F)nn(C)c2OCC(F)F)c1 has pigweed Plant response rating, Pigweed equal to 60

Record Cc1cc[n+]([O-])c(S(=O)(=O)C(Cl)c2c(C(F)(F)F)nn(C)c2OCC(F)(F)F)c1 (racemic) has pigweed Plant response rating, Pigweed equal to 80

Record CCn1nc(C(F)(F)F)c(CS(=O)(=O)c2cc(C)cc[n+]2[O-])c1OCC(F)(F)F has pigweed Plant response rating, Pigweed equal to 95

Record CCc1cc[n+]([O-])c(S(=O)(=O)Cc2c(C(F)(F)F)nn(C)c2OCC(F)(F)F)c1 has pigweed Plant response rating, Pigweed equal to 100

Record Cc1cc[n+]([O-])c([S+]([O-])Cc2c(C(F)(F)F)nn(C)c2OCC(F)(F)F)c1 (racemic) has pigweed Plant response rating, Pigweed equal to 100

Record Cn1nc(C(F)(F)F)c(C[S+]([O-])c2cc(Br)cc[n+]2[O-])c1Cl (racemic) has pigweed Plant response rating, Pigweed equal to 100

Record Cc1cc[n+]([O-])c(S(=O)(=O)Cc2c(C(F)(F)F)nn(C)c2OCC(F)(F)F)c1 has pigweed Plant response rating, Pigweed equal to 100

Record Cn1nc(C(F)(F)F)c(C[S+]([O-])c2cc(F)cc[n+]2[O-])c1Cl (racemic) has pigweed Plant response rating, Pigweed equal to 100

Record Cn1nc(C(F)(F)F)c(C[S+]([O-])c2ccc(Cl)c[n+]2[O-])c1OCC(F)(F)F (racemic) has pigweed Plant response rating, Pigweed equal to 80
